Entries and their TGI
tested on: BT-549 breast; experiment: NCI tumour cell line growth inhibition, 48 h
Give the value, in units of µM, as a plain number.

Smiles data: C=CCCCCCCCCC(=O)[O][Sn]([CH2]CCC)([CH2]CCC)[CH2]CCC
Measured on: BT-549 breast
TGI, µM: 0.277

Smiles data: CN1CCN(C(=O)OCc2nc3c(N4CCOCC4)nc(Cl)nc3n2C)CC1
Measured on: BT-549 breast
TGI, µM: 2.44

Smiles data: Oc1ccc2ccccc2c1N=Nc1nccs1
Measured on: BT-549 breast
TGI, µM: 32.3

Asked: Enter reported TGI observed with BT-549 breast for COC(=O)[C@]12CC[C@@H](C)[C@H](C)[C@@H]1C1=CC[C@@H]3[C@@]4(C)C/C(=N\O)[C@H](O)[C@@]5(C)COC(=C45)C[C@@]3(C)[C@]1(C)CC2
Given back: 34.8
